Answer each item with its documented Activity.
tested on: Candida albicans; assay: Effect on sterol composition in Candida albicans isolate 14 expressing wild type erg11 and erg5 assessed as lanosterol level after 2 hrs by gas chromatography; type: functional
Give bare numbers, in %.

Example entries begin here.
CC(=O)N1CCN(c2ccc(OCC3COC(Cn4ccnc4)(c4ccc(Cl)cc4Cl)O3)cc2)CC1 (stereo not given): 26.4
CCC(C)n1ncn(-c2ccc(N3CCN(c4ccc(OCC5COC(Cn6cncn6)(c6ccc(Cl)cc6Cl)O5)cc4)CC3)cc2)c1=O (stereo not given): 29

Here are 3 compounds. What values of Activity were reported for them?
1. OC(Cn1cncn1)(Cn1cncn1)c1ccc(F)cc1F
2. Clc1ccccc1C(c1ccccc1)(c1ccccc1)n1ccnc1
3. C[C@@H](c1ncncc1F)[C@](O)(Cn1cncn1)c1ccc(F)cc1F

(A)
1. 25
2. 35
3. 24.1

Reference source: ChEMBL document CHEMBL1649311
